The reported measurements were obtained from patent US20120207760A1.

- test_system: hemagglutinin (HA) of influenza A/Solomon Islands/3/06 H1N1 (Influenza A virus A/Solomon …)
- assay_summary: ELISA, inactivated whole virions coated; transfection supernatant set 4
quantity_measured: OD450

# input Dear colleague, I am looking for the recorded OD450 of the following binder: TCN-534 (5249_B02) (antibody, V domains shown) VH: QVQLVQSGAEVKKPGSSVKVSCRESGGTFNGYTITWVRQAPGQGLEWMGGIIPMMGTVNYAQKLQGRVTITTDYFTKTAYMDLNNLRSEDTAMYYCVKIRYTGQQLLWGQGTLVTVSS VL: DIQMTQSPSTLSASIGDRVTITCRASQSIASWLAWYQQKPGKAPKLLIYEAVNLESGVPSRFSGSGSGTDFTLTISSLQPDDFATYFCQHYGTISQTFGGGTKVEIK
# output 3.5 OD450

# input Note, next up: TCN-535 (5246_P19) (antibody, V domains shown) VH: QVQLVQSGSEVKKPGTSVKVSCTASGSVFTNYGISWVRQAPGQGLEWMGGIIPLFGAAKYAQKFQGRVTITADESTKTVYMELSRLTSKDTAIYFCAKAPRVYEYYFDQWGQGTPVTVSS VL: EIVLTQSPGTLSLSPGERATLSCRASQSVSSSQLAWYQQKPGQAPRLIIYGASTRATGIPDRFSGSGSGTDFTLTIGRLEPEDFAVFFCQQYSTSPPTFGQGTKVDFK
# output 3.52 OD450

# input Note, next up: TCN-536 (5095_N01) (antibody, V domains shown) VH: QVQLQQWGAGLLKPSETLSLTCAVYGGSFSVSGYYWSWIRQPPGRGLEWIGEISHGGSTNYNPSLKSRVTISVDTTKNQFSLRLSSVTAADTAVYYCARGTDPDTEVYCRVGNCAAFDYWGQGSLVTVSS VL: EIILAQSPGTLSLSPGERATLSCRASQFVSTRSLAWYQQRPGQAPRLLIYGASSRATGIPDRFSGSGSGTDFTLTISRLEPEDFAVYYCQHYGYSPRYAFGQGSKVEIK
# output 3.52 OD450
